- TARGET ENTITY: recombinant human BACE-1 protein (Homo sapiens (Human), UniProt P56817)
- Sequence (P56817 46-501): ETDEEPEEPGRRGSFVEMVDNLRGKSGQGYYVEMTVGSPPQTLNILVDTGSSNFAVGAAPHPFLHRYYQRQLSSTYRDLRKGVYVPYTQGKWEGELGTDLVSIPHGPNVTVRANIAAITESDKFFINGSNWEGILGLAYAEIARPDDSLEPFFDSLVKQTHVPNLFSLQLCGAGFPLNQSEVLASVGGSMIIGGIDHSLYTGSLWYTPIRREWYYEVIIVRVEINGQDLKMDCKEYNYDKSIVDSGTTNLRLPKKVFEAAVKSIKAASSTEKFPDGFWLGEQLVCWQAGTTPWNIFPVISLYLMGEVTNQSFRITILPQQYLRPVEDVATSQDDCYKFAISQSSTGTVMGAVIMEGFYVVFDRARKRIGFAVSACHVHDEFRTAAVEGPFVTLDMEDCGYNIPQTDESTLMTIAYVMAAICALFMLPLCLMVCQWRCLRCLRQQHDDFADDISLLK
- PROTOCOL DETAILS: Measurement of Inhibition of β-Secretase Activity
- Assay type: biochemical
- APPLIED CONDITIONS: recombinant human BACE-1 protein, 3 h at 30° C., pH5.0; read-out: IC50 value
Please use Criterion met for IC50 under 2000 nM and Criterion not met for everything else, ties included.

Example results:
{"columns": ["COMPOUND", "ASSIGNED LABEL"],
 "data": [
  ["COCc1cc(NC(=O)c2ccc(C(F)(F)F)cc2)cc(C2(C)CCSC(N)=N2)c1 (stereo not drawn)", "Criterion not met"],
  ["COCc1cc(NC(=O)c2ccco2)cc(C2(C)CCSC(N)=N2)c1 (stereo not drawn)", "Criterion met"],
  ["CC1(c2cc(NC(=O)c3ccc(C(F)(F)F)cn3)cc(C(F)(F)F)c2)CCSC(N)=N1 (stereo not drawn)", "Criterion met"]
]}

## Task Is IC50 of CC1(c2cccc(OCCCc3ccccc3)c2)CCSC(N)=N1 (stereo not drawn) strictly below 2000 nM?
## Result Criterion not met

## Task IC50 strictly < 2000 nM for this compound? CC1(c2cccc(C=Cc3ccc(Cl)cn3)c2)CCSC(N)=N1 (stereo not drawn)
## Result Criterion not met

## Task Please indicate whether the reported IC50 of CC1(c2cc(NC(=O)c3ccc(Cl)cn3)ccc2Cl)CCSC(N)=N1.Cl (stereo not drawn) is strictly below 2000 nM.
## Result Criterion met

## Task Does the reported IC50 of COCc1cc(NC(=O)c2ccc(F)cc2)cc(C2(C)CCSC(N)=N2)c1 (stereo not drawn) stay below 2000 nM?
## Result Criterion not met

## Task For this compound, is IC50 lower than 2000 nM? CC1(c2cccc(NC(=O)c3ccc(C#N)cc3)c2)CCSC(N)=N1 (stereo not drawn)
## Result Criterion met

## Task Hello, I'm reviewing records and need to know if IC50 of COCc1cc(NC(=O)c2ccc(Cl)cc2)cc(C2(C)CCSC(N)=N2)c1 (stereo not drawn) is below 2000 nM. Could you check?
## Result Criterion met

* * *

Let's look at some molecules and their measured pIC50.
- TARGET ENTITY: recombinant human BACE-1 protein (Homo sapiens (Human))
- PROTOCOL DETAILS: Measurement of Inhibition of β-Secretase Activity
- Type: biochemical
- APPLIED CONDITIONS: fluorescence-quenched peptide substrate 18 nM, BACE-1 7.4 nM, 3 h at 30° C., pH5.0; read-out: IC50 value
pIC50: −log10 of the molar value.

{"columns": ["MOLECULE", "TARGET ENTITY", "pIC50"],
 "data": [
  ["CC1(c2cccc(NC(=O)c3cccc4c3OCCO4)c2)CCSC(N)=N1 (stereo not drawn) [Compound 207]", "recombinant human BACE-1 protein (Homo sapiens (Human))", "> 4.00"],
  ["CC(=O)Nc1ccc(C(=O)Nc2cccc(C3(C)CCSC(N)=N3)c2)nc1 (stereo not drawn) [Compound 792]", "recombinant human BACE-1 protein (Homo sapiens (Human))", "> 4.00"],
  ["CN(C)c1cnc(C(=O)Nc2cccc(C3(C)CCSC(N)=N3)c2)cn1 (stereo not drawn) [Compound 302]", "recombinant human BACE-1 protein (Homo sapiens (Human))", "> 4.00"],
  ["CC1(c2cc(N)cc(Br)c2)CCSC(N)=N1.Cl.Cl (stereo not drawn) [Compound 588]", "recombinant human BACE-1 protein (Homo sapiens (Human))", "> 4.00"],
  ["CC(C)Nc1cnc(C(=O)Nc2cccc(C3(C)CCSC(N)=N3)c2)cn1 (stereo not drawn) [Compound 157]", "recombinant human BACE-1 protein (Homo sapiens (Human))", "> 4.00"]
]}

## Task Which pIC50 is listed for Cc1ccc(C(=O)Nc2cc(Br)cc(C3(C)CCSC(N)=N3)c2)cc1 (stereo not drawn) [Compound 971] ?
## Result > 4.00
